Target: UniProtKB P27338
Sequence (P27338 whole entry): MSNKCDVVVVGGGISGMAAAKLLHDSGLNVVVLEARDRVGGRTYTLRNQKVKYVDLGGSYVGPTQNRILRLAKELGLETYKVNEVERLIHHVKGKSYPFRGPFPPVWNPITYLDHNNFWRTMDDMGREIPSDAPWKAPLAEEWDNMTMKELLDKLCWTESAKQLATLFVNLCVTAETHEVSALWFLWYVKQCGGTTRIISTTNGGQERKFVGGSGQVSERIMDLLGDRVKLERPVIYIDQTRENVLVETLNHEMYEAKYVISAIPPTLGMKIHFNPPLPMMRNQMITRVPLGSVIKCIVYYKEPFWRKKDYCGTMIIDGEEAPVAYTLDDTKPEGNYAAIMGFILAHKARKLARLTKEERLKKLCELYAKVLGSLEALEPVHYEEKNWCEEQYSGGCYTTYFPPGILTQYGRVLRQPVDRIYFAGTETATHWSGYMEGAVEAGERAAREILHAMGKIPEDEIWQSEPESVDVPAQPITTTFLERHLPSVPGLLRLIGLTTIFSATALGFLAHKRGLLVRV
Assay: Inhibition of MAO-B (unknown origin)
pIC50: −log10 of the molar value.
Property label: pIC50

COc1cc(O)c2c(=O)c3cccc(O)c3oc2c1 : 4.48

----------
pIC50: −log10 of the molar value.
So I've got pIC50 readings for Beta-secretase 1 (Homo sapiens, UniProt P56817), take a look.
Property label: pIC50

O=C(O[C@H]1Cc2c(O)cc(O)cc2O[C@H]1c1ccc(O)c(O)c1)c1cc(O)c(O)c(O)c1 : 5.62
CCC(=O)CNC(=O)Nc1nc2ccc(-c3oc4c(OC)c(O)c(O)c(OC)c4c(=O)c3O)cc2s1 : 5.68

----------
molecular target: Acetylcholinesterase (Homo sapiens, UniProt P22303); assay: Inhibition of AChE (unknown origin)
Sequence (P22303 whole entry): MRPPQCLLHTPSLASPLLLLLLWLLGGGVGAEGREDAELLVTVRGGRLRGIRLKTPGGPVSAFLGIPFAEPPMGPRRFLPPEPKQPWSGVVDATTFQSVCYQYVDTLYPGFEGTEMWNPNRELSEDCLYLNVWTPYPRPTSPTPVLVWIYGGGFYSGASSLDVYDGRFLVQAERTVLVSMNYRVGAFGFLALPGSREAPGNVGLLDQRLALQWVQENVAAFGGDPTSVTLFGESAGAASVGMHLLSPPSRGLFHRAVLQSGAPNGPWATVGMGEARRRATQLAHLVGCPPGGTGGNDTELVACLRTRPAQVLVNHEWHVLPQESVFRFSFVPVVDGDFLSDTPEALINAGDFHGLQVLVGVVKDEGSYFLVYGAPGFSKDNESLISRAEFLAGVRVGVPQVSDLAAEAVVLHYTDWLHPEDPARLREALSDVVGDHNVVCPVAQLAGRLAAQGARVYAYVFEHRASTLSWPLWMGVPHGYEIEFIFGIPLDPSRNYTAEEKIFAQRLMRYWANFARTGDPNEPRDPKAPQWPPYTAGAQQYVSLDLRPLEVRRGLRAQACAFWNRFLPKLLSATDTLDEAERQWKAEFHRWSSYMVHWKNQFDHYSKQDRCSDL
pIC50: −log10 of the molar value.
Property label: pIC50

COc1cc2oc3cccc(O)c3c(=O)c2c(O)c1CN(C)C : 4.00
COc1ccc(/C=C2\COc3cc(OCCCN4CCCCC4)ccc3C2=O)cc1 : 5.40
CCN(CC)CCOc1ccc2c(=O)cc(-c3ccc(OC)cc3)oc2c1 : 7.57
COc1ccc(-c2cc(=O)c3ccc(OCCN4CCC(C)CC4)cc3o2)cc1 : 8.20

----------
target: Cholinesterase (Homo sapiens); assay: Inhibition of BuChE (unknown origin)
pIC50: −log10 of the molar value.
Property label: pIC50

COc1ccc(-c2cc(=O)c3ccc(OCCN4CCOCC4)cc3o2)cc1 : 7.26
COc1ccc(/C=C2\COc3cc(OCCCN4CCCCC4)ccc3C2=O)cc1 : 5.04
CCN(CC)CCOc1ccc2c(=O)cc(-c3ccc(OC)cc3)oc2c1 : 7.31
COc1ccc(-c2cc(=O)c3ccc(OCCN4CCC(C)CC4)cc3o2)cc1 : 7.61
CCC(=O)CNC(=O)Nc1nc2ccc(-c3oc4c(OC)c(O)c(O)c(OC)c4c(=O)c3O)cc2s1 : 9.49

----------
target: Amyloid-beta precursor protein (Homo sapiens); test: Inhibition of amyloid beta (1 to 42) (unknown origin) fibril formation incubated for 1 hr by thioflavin-T fluorescence assay
Sequence (P05067 whole entry): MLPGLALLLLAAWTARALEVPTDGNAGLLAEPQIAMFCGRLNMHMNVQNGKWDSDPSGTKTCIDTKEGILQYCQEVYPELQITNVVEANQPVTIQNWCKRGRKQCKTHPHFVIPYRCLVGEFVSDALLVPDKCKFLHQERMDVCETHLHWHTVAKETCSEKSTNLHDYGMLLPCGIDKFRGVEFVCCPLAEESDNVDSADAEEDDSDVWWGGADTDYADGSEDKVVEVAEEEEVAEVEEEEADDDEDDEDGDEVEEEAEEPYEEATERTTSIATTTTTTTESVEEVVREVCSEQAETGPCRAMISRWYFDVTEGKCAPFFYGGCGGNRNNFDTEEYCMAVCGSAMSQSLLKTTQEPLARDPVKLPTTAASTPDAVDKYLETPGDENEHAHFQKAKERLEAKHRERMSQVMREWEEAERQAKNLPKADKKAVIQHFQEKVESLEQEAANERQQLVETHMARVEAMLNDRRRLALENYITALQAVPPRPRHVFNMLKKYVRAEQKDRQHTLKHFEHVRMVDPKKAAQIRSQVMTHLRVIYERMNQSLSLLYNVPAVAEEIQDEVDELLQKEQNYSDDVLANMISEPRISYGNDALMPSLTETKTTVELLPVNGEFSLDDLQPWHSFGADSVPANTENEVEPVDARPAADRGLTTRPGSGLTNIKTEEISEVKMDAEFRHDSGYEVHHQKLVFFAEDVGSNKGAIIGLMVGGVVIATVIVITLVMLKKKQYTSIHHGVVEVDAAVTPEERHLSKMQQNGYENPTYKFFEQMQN
pIC50: −log10 of the molar value.
pIC50 by entry:
Property label: pIC50

O=c1c(O)c(-c2ccc(O)c(O)c2)oc2cc(O)cc(O)c12 : 5.62
COc1cc(O)c2c(=O)c(O)c(-c3ccc(O)c(O)c3)oc2c1 : 5.64
O=c1c(O)c(-c2ccc(O)cc2O)oc2cc(O)cc(O)c12 : 5.13
O=c1c(O)c(-c2ccc(O)c(O)c2)oc2cc(O)ccc12 : 4.90

----------
target: Cholinesterase (Homo sapiens, UniProt P06276); assay: Inhibition of BuChE (unknown origin)
Sequence (P06276 whole entry): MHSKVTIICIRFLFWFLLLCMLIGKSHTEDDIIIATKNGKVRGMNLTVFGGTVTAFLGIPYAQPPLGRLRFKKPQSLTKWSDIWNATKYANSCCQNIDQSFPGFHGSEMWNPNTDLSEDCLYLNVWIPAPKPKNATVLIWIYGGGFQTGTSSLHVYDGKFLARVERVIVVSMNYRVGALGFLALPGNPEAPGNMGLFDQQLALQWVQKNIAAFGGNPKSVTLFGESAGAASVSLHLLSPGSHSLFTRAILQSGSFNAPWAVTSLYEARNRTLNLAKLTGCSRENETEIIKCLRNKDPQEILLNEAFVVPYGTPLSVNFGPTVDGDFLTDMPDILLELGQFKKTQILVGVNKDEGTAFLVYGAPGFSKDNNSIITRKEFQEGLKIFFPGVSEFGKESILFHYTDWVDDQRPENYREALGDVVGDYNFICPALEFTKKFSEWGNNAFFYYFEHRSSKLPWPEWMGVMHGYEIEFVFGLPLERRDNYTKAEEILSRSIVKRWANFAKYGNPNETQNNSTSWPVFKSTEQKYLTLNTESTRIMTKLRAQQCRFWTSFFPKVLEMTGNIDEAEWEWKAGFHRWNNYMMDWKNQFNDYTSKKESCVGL
IC50 values by entry
Property label: IC50 (nM)

COc1ccc(-c2cc(=O)c3ccc(OCCN4CCN(CCO)CC4)cc3o2)cc1 : 21.6
CCN(CC)C(=O)Oc1ccc(-c2cc(=O)c3c(O)c(O)c(O)cc3o2)cc1 : 22100
Cc1ccc(NCC[C@@H]2CCCN3CCCC[C@H]23)c2c(=O)c3ccccc3sc12 : 460
Cc1ccc(NCC[C@@H]2CCCN3CCCC[C@H]23)c2c(=O)c3ccccc3oc12 : 370
COc1ccc(-c2cc(=O)c3ccc(OCCN4CCCC4)cc3o2)cc1 : 69.5

----------
target: Acetylcholinesterase (Homo sapiens, UniProt P22303); test: Inhibition of AChE (unknown origin)
Property label: IC50

Cc1ccc(NCC[C@@H]2CCCN3CCCC[C@H]23)c2c(=O)c3ccccc3oc12 : 140 nM
Cc1ccc(NCC[C@@H]2CCCN3CCCC[C@H]23)c2c(=O)c3ccccc3sc12 : 5200 nM
COc1ccc(-c2cc(=O)c3ccc(OCCN4CCOCC4)cc3o2)cc1 : 11 nM
CN(C)Cc1c(O)c(O)c(O)c2c(=O)cc(-c3ccccc3)oc12 : 82000 nM
COc1ccc(-c2cc(=O)c3ccc(OCCN4CCCC4)cc3o2)cc1 : 105 nM
CCC(=O)CNC(=O)Nc1nc2ccc(-c3oc4c(OC)c(O)c(O)c(OC)c4c(=O)c3O)cc2s1 : 100 nM
COc1ccc(-c2cc(=O)c3ccc(OCCN4CCN(CCO)CC4)cc3o2)cc1 : 7.56 nM
CCN(CC)C(=O)Oc1ccc(-c2cc(=O)c3c(O)c(O)c(O)cc3o2)cc1 : 1200 nM
CCN(CC)CCCCOc1cc(O)c2c(=O)c(-c3ccc(O)cc3)coc2c1 : 100 nM
CN(C)CCNC(=O)COc1cc(O)c2c(=O)c(-c3ccc(O)cc3)coc2c1.Cl : 2750 nM

----------
target: Amine oxidase [flavin-containing] B (Homo sapiens, UniProt P27338); assay: Inhibition of human MAO-B
pIC50: −log10 of the molar value.
Property label: pIC50

COc1ccc(/C=C2\COc3cc(OCCCN4CCCCC4)ccc3C2=O)cc1 : 5.46
COc1ccc(/C=C2\COc3cc(OCCN4CCCCC4)ccc3C2=O)cc1 : 4.60
COc1ccc(/C=C2\COc3cc(OCCCCCN4CCCCC4)ccc3C2=O)cc1 : 6.19

----------
molecular target: Amyloid-beta precursor protein (Homo sapiens); assay: Inhibition of self-induced amyloid beta (unknown origin) aggregation
pIC50: −log10 of the molar value.
Property label: pIC50

Cc1ccc(NCC[C@@H]2CCCN3CCCC[C@H]23)c2c(=O)c3ccccc3oc12 : 4.89
Cc1ccc(NCC[C@@H]2CCCN3CCCC[C@H]23)c2c(=O)c3ccccc3sc12 : 6.08

These data points were gathered from ChEMBL document CHEMBL5252548.
